Experimental Details: pharmacokinetic study on guinea pigs under urethane anaesthesia, oral administration of dextrorphan citrate and tartrate; plasma dextrorphan by HPLC after β-glucuronidase hydrolysis
Type: in vivo
Assay Setup: guinea pig, plasma, po, Table 2 (dextrorphan tartrate by order of b16), 60 minutes, read-out: Dextrorphan hematic levels
Quantity Measured: concentration at 1 h
Please answer using a numeric value trailed by its unit.

Q. Dear colleague, I am looking for the recorded concentration at 1 h of the following compound: `CN1CC[C@@]23CCCC[C@@H]2[C@@H]1Cc1ccc(O)cc13`
A. 2500 ng/mL
